Catalogue of IC50 readings, one per entry.
- tgt: Disintegrin and metalloproteinase domain-containing protein 17 (Homo sapiens)
- Sequence (P78536 whole entry, the tested form may be a part): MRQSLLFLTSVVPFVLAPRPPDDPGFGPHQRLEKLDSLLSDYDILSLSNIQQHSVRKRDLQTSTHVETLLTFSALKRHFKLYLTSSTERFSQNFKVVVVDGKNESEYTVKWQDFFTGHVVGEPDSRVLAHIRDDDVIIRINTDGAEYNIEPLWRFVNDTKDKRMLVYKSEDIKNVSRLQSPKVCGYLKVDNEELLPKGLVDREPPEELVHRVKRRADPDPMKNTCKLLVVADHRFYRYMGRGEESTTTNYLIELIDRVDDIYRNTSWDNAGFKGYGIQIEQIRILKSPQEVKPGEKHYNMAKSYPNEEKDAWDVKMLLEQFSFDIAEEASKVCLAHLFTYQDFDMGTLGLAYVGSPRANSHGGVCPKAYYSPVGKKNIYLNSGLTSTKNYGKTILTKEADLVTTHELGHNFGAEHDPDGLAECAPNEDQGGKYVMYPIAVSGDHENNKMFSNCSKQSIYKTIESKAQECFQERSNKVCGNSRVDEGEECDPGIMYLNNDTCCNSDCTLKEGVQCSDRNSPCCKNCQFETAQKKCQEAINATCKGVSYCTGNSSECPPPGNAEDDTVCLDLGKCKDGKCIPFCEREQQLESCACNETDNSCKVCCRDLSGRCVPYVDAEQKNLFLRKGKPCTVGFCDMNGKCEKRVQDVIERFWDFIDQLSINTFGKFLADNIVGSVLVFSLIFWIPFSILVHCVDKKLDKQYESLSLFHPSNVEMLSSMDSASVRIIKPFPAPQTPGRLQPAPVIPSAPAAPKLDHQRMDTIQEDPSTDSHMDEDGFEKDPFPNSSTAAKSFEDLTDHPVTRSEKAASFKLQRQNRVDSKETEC
- assay method text: exosite inhibitors of ADAM17, dose response, biochemical (AID 743260)
State just the number; it will be interpreted in µM.

Look over these answered cases.
- Cn1c(-c2sccc2OCc2ccc(Cl)cc2Cl)n[nH]c1=S: 69.5
- CC(=NNC(=N)Sc1cc(O)n(-c2ccccc2)c1O)c1cccs1: 69.5
- CCOc1cc(C(c2c(C)[nH][nH]c2=O)c2c(C)[nH][nH]c2=O)ccc1O: 69.5

Exercise: Record lookup: for Disintegrin and metalloproteinase domain-containing protein 17 (Homo sapiens), what IC50 belongs to `CCOc1ccc(NC(=O)Cc2sc(=O)n(-c3ccccc3)c2O)cc1` ?
Key: 5.73

Exercise: Enter reported IC50 observed with Disintegrin and metalloproteinase domain-containing protein 17 (Homo sapiens) for `COc1ccc(NC(=O)c2oc3ccccc3c2NC(=O)C(C)(C)C)cc1`
Key: 69.5

Exercise: Param readout= IC50; system= Disintegrin and metalloproteinase domain-containing protein 17 (Homo sapiens); entry= COc1cccc(C2c3oc(CO)cc(=O)c3OC(=N)C2C#N)c1 (centres undefined) ; returns value.
Key: 69.5

Exercise: Find the measured IC50: item `Cc1cccc(NNC2=c3cc(Br)ccc3=NC2=O)c1` , target or system Disintegrin and metalloproteinase domain-containing protein 17 (Homo sapiens).
Key: 69.5

Exercise: I'm curious: which IC50 was measured for `C=c1cc(O)c(CN(C)C)c2oc(=Cc3ccco3)c(O)c12` tested on Disintegrin and metalloproteinase domain-containing protein 17 (Homo sapiens)?
Key: 17

Exercise: Form field: IC50 recorded for CC1CCCN(CCCNC(=O)c2coc3nc4ccccc4nc23)C1 (centres undefined) [MLS000046706] with Disintegrin and metalloproteinase domain-containing protein 17 (Homo sapiens) (enter value)
Key: 69.5

Where these numbers come from: BindingDB's records for doi:10.7270/Q21J98DJ
